Biological target: AGTR1 (Homo sapiens, UniProt P30556)
Construct: host or cells: Pathunter CHO-K1 AGTR1 β-arrestin cell line (CHO-K1)
Sequence (P30556 1-359): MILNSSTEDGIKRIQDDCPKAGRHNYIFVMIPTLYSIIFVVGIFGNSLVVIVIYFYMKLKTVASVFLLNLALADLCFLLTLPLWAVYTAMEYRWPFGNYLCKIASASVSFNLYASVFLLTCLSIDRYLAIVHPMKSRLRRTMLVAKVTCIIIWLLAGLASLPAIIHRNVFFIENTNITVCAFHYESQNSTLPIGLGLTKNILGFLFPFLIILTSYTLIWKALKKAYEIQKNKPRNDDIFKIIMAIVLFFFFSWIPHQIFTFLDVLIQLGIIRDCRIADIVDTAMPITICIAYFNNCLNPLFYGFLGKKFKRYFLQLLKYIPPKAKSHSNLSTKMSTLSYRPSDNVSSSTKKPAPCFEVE
Assay: DiscoveRx β-arrestin2 recruitment assay (enzyme complementation, Pathunter CHO-K1 AGTR1 β-arrestin cell line)
Assay type: cell-based
Conditions: DiscoveRx β-arrestin2 recruitment
One threshold, 20 nM, splits the recorded EC50 values: lower ones are yes (1), equal or higher ones are no (0).

Please check: EC50 for CCCCC(=O)N(Cc1ccc(-c2cc(-c3cccc(C)n3)ccc2-c2nn[nH]n2)cc1)C1(C(=O)O)CCCCC1 [Example 294] , strictly under 20 nM or not? no (0)

Please check: EC50 for CCc1nc2c(C)cc(C)nc2n1Cc1ccc(-c2cc(Oc3cccc(Cl)c3)ccc2-c2nnn[nH]2)cc1 [Example 206] , strictly under 20 nM or not? yes (1)

Please check: EC50 for CCc1nc2c(C)cc(C)nc2n1Cc1ccc(-c2cc(-n3cc(C4CC4)nn3)ccc2-c2nnn[nH]2)cc1 [Example 225] , strictly under 20 nM or not? no (0)

Please check: EC50 for CCc1nc2c(C)cc(C)nc2n1Cc1ccc(-c2cc(OC3CCCCC3)ccc2-c2nnn[nH]2)cc1 [Example 209] , strictly under 20 nM or not? no (0)

Please check: EC50 for CCOc1nc2cccc(C(=O)O)c2n1Cc1ccc(-c2cc(Oc3ccc(F)cc3)ccc2-c2nn[nH]n2)cc1 [Example 336] , strictly under 20 nM or not? yes (1)

Please check: EC50 for CCc1nc2c(C)cc(C)nc2n1Cc1ccc(-c2cc(-c3cccs3)ccc2-c2nn[nH]n2)cc1 [Example 12] , strictly under 20 nM or not? yes (1)

Please check: EC50 for CCCCc1nc(Cl)c(C(=O)N(C)C)n1Cc1ccc(-c2cc(-c3ccccc3)ccc2-c2nn[nH]n2)cc1 [Example 381] , strictly under 20 nM or not? no (0)

---

For each of the compounds below, state its EC50.
Target: hAT1R (Homo sapiens, UniProt P30556)
Assay: cell-based
Conditions: agonist mode; read-out: BRET P63 EC50

Entry CCCCC(=O)N(Cc1ccc(-c2cc(-c3cccc(OC)n3)ccc2-c2nn[nH]n2)cc1)[C@H](C(=O)O)C(C)C ; EC50 = 668 nM

Entry CCCCC1=NC2(CCCC2)C(=O)N1Cc1ccc(-c2cc(-c3cccc(F)c3)ccc2-c2nn[nH]n2)cc1 ; EC50 = > 10000 nM

Entry CCCC1=NC2(CCCC2)C(=O)N1Cc1ccc(-c2cc(N3CCC[C@@H](C)C3)ccc2-c2nn[nH]n2)cc1 ; EC50 = > 100000 nM

Entry CCOc1nc2cccc(C(=O)O)c2n1Cc1ccc(-c2cc(-c3cccc(C)c3)ccc2C(=O)O)cc1 ; EC50 = 46.7 nM

Entry CCc1nc2c(C)cc(C)nc2n1Cc1ccc(-c2cc(-n3cc4ccccc4n3)ccc2-c2nnn[nH]2)cc1 ; EC50 = 1.8 nM

Entry CCCCC1=NC2(CCCC2)C(=O)N1Cc1ccc(-c2cc(-c3cc(OC)ccn3)ccc2-c2nn[nH]n2)cc1 ; EC50 = 13.3 nM

Entry CCc1nc2c(C)cc(C)nc2n1Cc1ccc(-c2cc(-n3cc(C)nn3)ccc2-c2nnn[nH]2)cc1 ; EC50 = > 100000 nM

---

Molecular target: hAT1R (Homo sapiens, UniProt P30556)
Assay: BRET β-arrestin2 biosensor assay, higher receptor expression (hAT1R 5 ng/well), HEK293 cells
Type: cell-based
Recorded Endpoint: BRET β-Arrestin2 High AT1R Expression Ymax (%)
// return numeric value only (unit: %, not printed)

Entry CCC1=NC2(CCCC2)C(=O)N1Cc1ccc(-c2cc(-c3ccccc3)ccc2-c2nn[nH]n2)cc1 ; BRET β-Arrestin2 High AT1R Expression Ymax (%) = 78.5

Entry CCc1nc2c(C)cc(C)nc2n1Cc1ccc(-c2cc(-c3ccccc3O)ccc2-c2nnn[nH]2)cn1 ; BRET β-Arrestin2 High AT1R Expression Ymax (%) = 89.3

Entry CCCCc1ncc(C(=O)NCCC(C)C)n1Cc1ccc(-c2cc(-c3ccccc3)ccc2-c2nn[nH]n2)cc1 ; BRET β-Arrestin2 High AT1R Expression Ymax (%) = 78.7

Entry CCCCc1ncc(C(=O)NCCC(C)(C)O)n1Cc1ccc(-c2cc(-c3ccccc3)ccc2-c2nn[nH]n2)cc1 ; BRET β-Arrestin2 High AT1R Expression Ymax (%) = 94.3

Entry CCCCc1ncc(C(=O)NCC(C)C)n1Cc1ccc(-c2cc(-c3ccccc3)ccc2-c2nn[nH]n2)cc1 ; BRET β-Arrestin2 High AT1R Expression Ymax (%) = 82.6

Entry CCc1nc2c(C)cc(C)nc2n1Cc1ccc(-c2cc(-c3ccc(C(F)(F)F)cc3)ccc2-c2nn[nH]n2)cc1 ; BRET β-Arrestin2 High AT1R Expression Ymax (%) = 60.0

Entry CCc1nc2c(C)cc(C)nc2n1Cc1ccc(-c2cc(N3C(=O)c4ccccc4C3=O)ccc2-c2nn[nH]n2)cc1 ; BRET β-Arrestin2 High AT1R Expression Ymax (%) = 20.1

---

For each of the compounds below, state its EC50.
Target: hAT1R (Homo sapiens, UniProt P30556)
Test: cell-based
Details: agonist mode; read-out: BRET P63 EC50
// return numeric value only (unit: nM, not printed)

Entry CCc1nc2c(C)cc(C)nc2n1Cc1ccc(-c2cc(Oc3cc(C)ccn3)ccc2-c2nn[nH]n2)cc1 ; EC50 = 9.3

Entry CCc1nc2c(C)cc(C)nc2n1Cc1ccc(-c2cc(-c3ccsn3)ccc2-c2nn[nH]n2)cc1 ; EC50 = 14.3

Entry CCOc1nc2cccc(C(=O)O)c2n1Cc1ccc(-c2cc(-n3cc4ccccc4n3)ccc2-c2nn[nH]n2)cc1 ; EC50 = 4.4

Entry CCOc1nc2cccc(C(=O)O)c2n1Cc1ccc(-c2cc(-c3cc(OC(F)F)ccn3)ccc2-c2noc(=O)[nH]2)cc1 ; EC50 = 10.2

Entry CCc1nc2c(C)cc(C)nc2n1Cc1ccc(-c2cc(-c3cccc(C(F)(F)F)n3)ccc2-c2nn[nH]n2)cc1 ; EC50 = 22.3

Entry CCc1nc2c(C)cc(C)nc2n1Cc1ccc(-c2cc(-c3ccccc3)ccc2C(=O)O)cn1 ; EC50 = 1100

Entry CCCC1=NC2(CCOC2)C(=O)N1Cc1ccc(-c2cc(-c3cccc(C)c3)ccc2-c2nnn[nH]2)cc1 (single isomer, unassigned) [Example 159] ; EC50 = 79.3

Entry CCCCn1cc(-c2ccc(-c3nnn[nH]3)c(-c3ccc(Cn4c(CC)nc5c(C)cc(C)nc54)cc3)c2)nn1 ; EC50 = 40.5

Entry CCCCC(=O)N(Cc1ccc(-c2cc(-c3ccccn3)ccc2-c2nn[nH]n2)cc1)[C@H](C(=O)O)C(C)C ; EC50 = 365

Entry CCc1nc2c(C)cc(C)nc2n1Cc1ccc(-c2cc(-c3ncc(C)s3)ccc2-c2nn[nH]n2)cc1 ; EC50 = 15

Entry CCc1nc2c(C)cc(C)nc2n1Cc1ncc(-c2cc(-c3ccccc3)ccc2-c2nnn[nH]2)cn1 ; EC50 = 432

Entry COc1ccnc(-c2ccc(-c3nn[nH]n3)c(-c3ccc(CN4C(=O)C5(CCCC5)N=C4C4CC4)cc3)c2)c1 ; EC50 = 40.5

Entry CCc1nc2c(C)cc(C)nc2n1Cc1ccc(-c2cc(-c3cccc(OC)c3)ccc2-c2nn[nH]n2)cc1 ; EC50 = 10.8

Entry CCOc1nc2cccc(C(=O)O)c2n1Cc1ccc(-c2cc(-c3cnn(C(F)F)c3)ccc2-c2nn[nH]n2)cc1 ; EC50 = 26.9

Entry CCc1nc2c(C)cc(C)nc2n1Cc1ccc(-c2cc(-c3ccccc3)ccc2-c2noc(=S)[nH]2)cc1 ; EC50 = 43

Entry CCc1nc2c(C)cc(C)nc2n1Cc1ccc(-c2cc(-c3ccc(CO)cc3)ccc2-c2nnn[nH]2)cn1 ; EC50 = 210

---

Molecular target: AGTR1 (Homo sapiens)
Construct: host or cells: Pathunter CHO-K1 AGTR1 β-arrestin cell line (CHO-K1)
Assay: DiscoveRx β-arrestin2 recruitment assay (enzyme complementation, Pathunter CHO-K1 AGTR1 β-arrestin cell line)
Type: cell-based
Settings: DiscoveRx β-arrestin2 recruitment
For each of the compounds below, state its EC50.
// return numeric value only (unit: nM, not printed)

Entry CCc1nc2c(C)cc(C)nc2n1Cc1ccc(-c2cc(-c3cccc(C)c3)ccc2-c2nnn[nH]2)cn1 [Example 177] ; assay system AGTR1 (Homo sapiens); EC50 recorded at 11.8

Entry CCc1nc2c(C)cc(C)nc2n1Cc1ccc(-c2cc(-c3cccc(C)c3)ccc2C(=O)O)cn1 [Example 195] ; assay system AGTR1 (Homo sapiens); EC50 recorded at 694

Entry CCc1nc2c(C)cc(C)nc2n1Cc1ccc(-c2cc(Oc3cncc(C)c3)ccc2-c2nn[nH]n2)cc1 [Example 260] ; assay system AGTR1 (Homo sapiens); EC50 recorded at 51.7

Entry CCc1nc2c(C)cc(C)nc2n1Cc1ccc(-c2cc(Nc3ccccc3)ccc2-c2nn[nH]n2)cc1 [Example 93] ; assay system AGTR1 (Homo sapiens); EC50 recorded at 7.9
